List of inhibition values.
Target: Single-strand selective monofunctional uracil DNA glycosylase (Homo sapiens);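 note: enzymatic SMUG1 assay coupled with APE1, reading fluorescence at 594 nm released when a quenched double-stranded DNA oligonucleotide substrate is cleaved and separated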
Sequence (whole entry): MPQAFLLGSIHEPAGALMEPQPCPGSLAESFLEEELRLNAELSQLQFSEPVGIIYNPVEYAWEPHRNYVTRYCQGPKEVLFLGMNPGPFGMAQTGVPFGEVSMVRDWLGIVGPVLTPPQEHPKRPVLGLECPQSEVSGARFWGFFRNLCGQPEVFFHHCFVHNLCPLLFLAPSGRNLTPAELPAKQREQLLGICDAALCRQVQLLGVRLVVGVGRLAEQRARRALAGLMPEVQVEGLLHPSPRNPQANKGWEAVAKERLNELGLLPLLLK
Conditions: Compound Concentration 1.0 uM, Hit No
Description: Inhibition of SMUG1 by quantifying inhibition of SMUG1-mediated cleavage and dissociation of quenched duplex DNA oligonucleotides, measured as fluorescence at 594 nm. To generate a functional strand incision and increase turn-over this assay is coupled to APE1.

Chemical Structure	Unit Info	inhibition
Cc1c[nH]c2nccc(Oc3c(F)cc(Nc4cc(Cl)nc(N)n4)cc3F)c12	%	20.7
O=C(NCCCC1CCCCC1)c1ccc(CNC(=O)c2cnn(-c3ccccc3)c2C(F)(F)F)cc1	%	0.918
C[C@@H]1CCNC(=O)c2cc3ccc(C(=O)Nc4nc5ccccc5n4CCCN(C)C)cc3n21	%	22.7
COc1ncc(-c2ccc3nccc(-c4ccnnc4)c3c2)cc1NS(=O)(=O)c1ccc(F)cc1F	%	-0.754
NC(=O)c1ccc2nc(-c3ccc(C4(N)CCC4)cc3)c(-c3ccccc3)n2n1	%	21.7
Cc1c(Oc2ccc(F)cc2)c(OC(C)C)nn1-c1ccc(C2CC2)cn1	%	8.77
CCCOc1ccc([C@@H]2[C@@H](C(=O)O)[C@H](c3ccc4c(c3)OCO4)CN2CC(=O)Nc2c(CC)cccc2CC)cc1	%	18.8
O[C@]1(C(F)(F)F)CCCC[C@H]1Nc1ccc(F)cc1	%	15.6
CN(c1ccnc(CNc2nc(Nc3ccc4c(c3)CC(=O)N4)ncc2C(F)(F)F)n1)S(C)(=O)=O	%	15.5
